# Tested on: Mycobacterium tuberculosis Erdman (autoluminescent)
# experimental protocol: Einf, fitted maximum growth inhibition of combination (fraction); higher = stronger maximal inhibition
# protocol conditions: in vitro model: butyrate; time point: constant (~7 days, model-specific)
# Einf listing for each entry below
The answer should be written as a number, with no unit following it.

Known results for compounds:
1) COc1c(N2C[C@@H]3CCCN[C@@H]3C2)c(F)cc2c(=O)c(C(=O)O)cn(C3CC3)c12 [moxifloxacin] + NC(=O)c1cnccn1 [pyrazinamide]	0.922
2) COc1nc2ccc(Br)cc2cc1[C@@H](c1ccccc1)[C@@](O)(CCN(C)C)c1cccc2ccccc12 [bedaquiline] + CO[C@H]1/C=C/O[C@@]2(C)Oc3c(C)c(O)c4c(O)c(c(/C=N/N5CCN(C6CCCC6)CC5)c(O)c4c3C2=O)NC(=O)/C(C)=C\C=C\[C@H](C)[C@H](O)[C@@H](C)[C@@H](O)[C@@H](C)[C@H](OC(C)=O)[C@@H]1C [rifapentine]	0.933
3) CC(C)/N=c1\cc2n(-c3ccc(Cl)cc3)c3ccccc3nc-2cc1Nc1ccc(Cl)cc1 [clofazimine] + CC(=O)NC[C@H]1CN(c2ccc(N3CCOCC3)c(F)c2)C(=O)O1 [linezolid]	0.957
4) COc1nc2ccc(Br)cc2cc1[C@@H](c1ccccc1)[C@@](O)(CCN(C)C)c1cccc2ccccc12 [bedaquiline] + CC(=O)NC[C@H]1CN(c2ccc(N3CCOCC3)c(F)c2)C(=O)O1 [linezolid]	0.935

For the compound shown here, CC(=O)NC[C@H]1CN(c2ccc(N3CCOCC3)c(F)c2)C(=O)O1 [linezolid] + O=[N+]([O-])c1cn2c(n1)OC[C@@H](OCc1ccc(OC(F)(F)F)cc1)C2 [pretomanid] , give the reported Einf. 0.907

Likewise for COc1nc2ccc(Br)cc2cc1[C@@H](c1ccccc1)[C@@](O)(CCN(C)C)c1cccc2ccccc12 [bedaquiline] + COc1c(N2C[C@@H]3CCCN[C@@H]3C2)c(F)cc2c(=O)c(C(=O)O)cn(C3CC3)c12 [moxifloxacin] ? 0.966

Likewise for COc1nc2ccc(Br)cc2cc1[C@@H](c1ccccc1)[C@@](O)(CCN(C)C)c1cccc2ccccc12 [bedaquiline] + NC(=O)c1cnccn1 [pyrazinamide] ? 0.969

Likewise for CC(=O)NC[C@H]1CN(c2ccc(N3CCOCC3)c(F)c2)C(=O)O1 [linezolid] + CO[C@H]1/C=C/O[C@@]2(C)Oc3c(C)c(O)c4c(O)c(c(/C=N/N5CCN(C)CC5)c(O)c4c3C2=O)NC(=O)/C(C)=C\C=C\[C@H](C)[C@H](O)[C@@H](C)[C@@H](O)[C@@H](C)[C@H](OC(C)=O)[C@@H]1C [rifampicin] ? 0.87

Likewise for CC[C@@H](CO)NCCN[C@@H](CC)CO [ethambutol] + NC(=O)c1cnccn1 [pyrazinamide] ? 0.866
